- System: Yap1 mRNA
- TEST NAME: Antisense inhibition of human Yap1 in SNU-449 cells by modified oligonucleotides, single dose (Example 5, RTS36584)
- Assay type: cell-based
- CONDITION: Table 51; Yap1 mRNA remaining as percent of untreated control (UT), SNU-449 cells, single dose
Strand notation (5' to 3'): a small letter for the sugar, then the base; units joined by * are phosphorothioate-linked, units joined directly phosphodiester-linked; [ ] holds rarer units or linkages, { } end groups; capitals alone tell only the bases. k = constrained ethyl (cEt); [5mC] = 5-methylcytosine; d = 2'-deoxy (DNA); m = 2'-O-methyl
MEASURED PARAMETER: YAP1 (% UT)
The answer should read as a number with its unit following.

{"columns": ["SUBSTANCE", "YAP1 (% UT)"],
 "data": [
  ["1197242 (antisense k[5mC]*kA*k[5mC]*dT*mG*dA*dG*dG*dT*dA*dT*dA*dA*k[5mC]*kT*kG) [Compound 1197242]", "46 % UT"],
  ["1197243 (antisense kA*kA*k[5mC]*dA*mC*dT*dG*dA*dG*dG*dT*dA*dT*kA*kA*k[5mC]) [Compound 1197243]", "81 % UT"]
]}

Could you tell me which YAP1 (% UT) is on file for 1197264 (kA*kT*kT*dG*mC*dA*dA*dT*d[5mC]*dT*dG*dT*d[5mC]*kT*kG*kA) [Compound 1197264] ?
33 % UT

* * *

- Tested on: Yap1 mRNA
- TEST NAME: Antisense inhibition of human Yap1 in A-431 cells by cEt gapmers, single dose (Example 4, RTS4814)
- Format: cell-based
- CONDITION: Table 16; A-431 cells, 5,000 cells per well, free uptake, 2,000 nM, approximately 48 hours; RTS4814; normalized to RIBOGREEN; Yap1 mRNA relative to untreated control cells
Strand notation (5' to 3'): a small letter for the sugar, then the base; units joined by * are phosphorothioate-linked, units joined directly phosphodiester-linked; [ ] holds rarer units or linkages, { } end groups; capitals alone tell only the bases. k = constrained ethyl (cEt); [5mC] = 5-methylcytosine; d = 2'-deoxy (DNA)
Entries and their YAP1 (% UTC)
Provide the reading as a plain figure in % UTC.

Previously resolved entries follow.
{"columns": ["SUBSTANCE", "YAP1 (% UTC)"],
 "data": [
  ["1076226 (k[5mC]*kA*kT*dA*dT*dA*dA*dA*d[5mC]*d[5mC]*dT*dT*dG*k[5mC]*kT*kA; antisense) [Compound 1076226]", 36],
  ["1074818 (kA*k[5mC]*kT*dG*dA*dA*dT*dA*dT*dT*dG*d[5mC]*d[5mC]*kA*k[5mC]*k[5mC]; antisense) [Compound 1074818]", 12],
  ["958499 (kA*kT*kT*dA*dG*dA*dG*dT*dA*dT*dG*dT*dG*kG*k[5mC]*kA) [Compound 958499]", 2],
  ["1074498 (kA*k[5mC]*kA*dA*dT*dA*dA*d[5mC]*d[5mC]*dA*dT*d[5mC]*d[5mC]*k[5mC]*kA*kA; antisense) [Compound 1074498]", 17]
]}

Could you tell me which YAP1 (% UTC) is on file for 1076194 (kT*kT*kT*dA*dA*dT*dA*d[5mC]*dA*d[5mC]*dA*dG*dG*kT*kT*k[5mC]; antisense) [Compound 1076194] ?
22
